Experiment: Antiproliferative activity against human L-132 cells assessed as growth inhibition after 48 hrs by MTS-PMS assay
Type: cell-based, L132
Settings: Homo sapiens, L132, 48 h; read-out: IC50
Readings of pIC50 for the listed molecules
Answer as the number alone; pIC50 is minus log10 of concentration in mol/L.

In the examples that follow, each entry is paired with its recorded pIC50.
C=C1CC[C@@H]2[C@](C)(CO)[C@H](O)CC[C@@]2(C)[C@@H]1C/C=C1/C(=O)OC[C@H]1OC(=O)CCCC(=O)O    4.71
C=C1CC[C@@H]2[C@](C)(CO)[C@H](O)CC[C@@]2(C)[C@@H]1C/C=C1/C(=O)OC[C@H]1OC(=O)c1ccccc1C(=O)O    4.96

Then this molecule:
Query :: Which pIC50 is reported for this molecule? `C=C1CC[C@@H]2[C@](C)(CO)[C@H](O)CC[C@@]2(C)[C@@H]1C/C=C1/C(=O)OC[C@H]1OC(=O)CCC(=O)O`
Result :: 5.07
